# Tested on: NDM-1 (Klebsiella pneumoniae, UniProt C7C422)
# Sequence (C7C422 29-270 limits assumed): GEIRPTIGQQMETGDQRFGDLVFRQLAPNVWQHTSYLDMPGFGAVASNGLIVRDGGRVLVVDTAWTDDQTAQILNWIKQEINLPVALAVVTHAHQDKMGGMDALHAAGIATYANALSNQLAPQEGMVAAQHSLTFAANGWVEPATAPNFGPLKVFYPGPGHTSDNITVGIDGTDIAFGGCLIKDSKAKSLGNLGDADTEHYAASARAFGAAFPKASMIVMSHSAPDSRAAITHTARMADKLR
# Experiment: Inhibitory activity on MBL, fluorescent substrate FC-5
# Type: biochemical
pIC50: −log10 of the molar value.

{"columns": ["Molecule", "pIC50"],
 "data": [
  ["O=C(O)c1c(CNc2nncs2)ccc2c1OB(O)CC2 [Comparative example 1 compound 64, reference compound]", 5.49]
]}

====

# Tested on: SHV-12 (UniProt P0AD64, L31Q/G234S/E235K, species not given)
# Sequence (P0AD64 1-286 L31Q/G234S/E235K): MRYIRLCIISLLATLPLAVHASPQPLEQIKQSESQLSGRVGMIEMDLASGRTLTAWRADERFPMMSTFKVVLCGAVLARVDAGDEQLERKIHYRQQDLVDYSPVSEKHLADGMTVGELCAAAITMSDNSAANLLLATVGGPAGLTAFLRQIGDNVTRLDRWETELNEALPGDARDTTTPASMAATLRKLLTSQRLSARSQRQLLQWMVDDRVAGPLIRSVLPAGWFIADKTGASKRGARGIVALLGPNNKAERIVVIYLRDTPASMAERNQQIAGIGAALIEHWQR
# Experiment: Inhibitory activity on SBL, fluorescent substrate FC-5
# Assay type: biochemical
# Settings: read-out: Inhibitory activity on SBL SHV-12 (IC50 class)

{"columns": ["Molecule", "IC50"],
 "data": [
  ["NC1CN(C(=O)c2cnn(Cc3ccc4c(c3C(=O)O)OB(O)CC4)c2)C1 [Compound 72]", "< 0.01 µM"],
  ["O=C(O)c1c(Cn2cc(C(F)(F)F)cn2)ccc2c1OB(O)CC2 [Compound 16]", "0.01 to 1 µM"],
  ["O=C(O)c1c(Cn2cc([N+](=O)[O-])cn2)ccc2c1OB(O)CC2 [Compound 31]", "0.01 to 1 µM"],
  ["O=C(O)c1c(Cn2cc3c(n2)CNC3)ccc2c1OB(O)[C@@H]1C[C@H]21 [Compound 53]", "0.01 to 1 µM"],
  ["NC1(c2cnn(Cc3ccc4c(c3C(=O)O)OB(O)CC4)c2)CC1 [Compound 40]", "0.01 to 1 µM"],
  ["O=C(O)c1c(Cn2cncn2)ccc2c1OB(O)CC2 [Compound 13]", "0.01 to 1 µM"],
  ["N#Cc1ccn(Cc2ccc3c(c2C(=O)O)OB(O)CC3)c1 [Compound 71]", "< 0.01 µM"],
  ["O=C(O)c1c(CN2C[C@H](O)CC2=O)ccc2c1OB(O)CC2 [Compound 44]", "0.01 to 1 µM"],
  ["NCCN1Cc2cn(Cc3ccc4c(c3C(=O)O)OB(O)CC4)nc2C1 [Compound 70]", "< 0.01 µM"]
]}

====

# Tested on: VIM-2 (Escherichia coli, UniProt Q5U7L7)
# Experiment: Inhibitory activity on MBL, fluorescent substrate FC-5
# Format: biochemical
# Settings: unit inferred; read-out: VIM-2, number in parentheses under the class symbol
pIC50: −log10 of the molar value.

{"columns": ["Compound", "Tested on", "pIC50"],
 "data": [
  ["O=C(O)c1c(CNc2nncs2)ccc2c1OB(O)CC2 [Comparative example 1 compound 64, reference compound]", "VIM-2 (Escherichia coli, UniProt Q5U7L7)", 5.09]
]}

====

Measured IC50 of individual entries
# Tested on: UniProt Q9F663
# Sequence (Q9F663 25-293 limits assumed): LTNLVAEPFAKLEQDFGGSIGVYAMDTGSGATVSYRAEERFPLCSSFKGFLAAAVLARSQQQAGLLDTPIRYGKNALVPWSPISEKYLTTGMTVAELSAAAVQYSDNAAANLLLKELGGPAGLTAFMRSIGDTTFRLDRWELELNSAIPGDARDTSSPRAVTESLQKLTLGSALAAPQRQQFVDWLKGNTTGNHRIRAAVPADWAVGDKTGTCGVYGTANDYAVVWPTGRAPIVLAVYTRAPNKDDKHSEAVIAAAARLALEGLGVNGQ
# Experiment: Inhibitory activity on SBL, fluorescent substrate FC-5
# Assay type: biochemical
# Settings: read-out: Inhibitory activity on SBL KPC-2 (IC50 class)
Value type: IC50

{"columns": ["Compound", "Result"],
 "data": [
  ["NS(=O)(=O)NCc1cnn(Cc2ccc3c(c2C(=O)O)OB(O)CC3)c1 [Compound 36]", "< 10 nM"],
  ["N=C(N)NCCc1cn(Cc2ccc3c(c2C(=O)O)OB(O)CC3)nn1 [Compound 10]", "< 10 nM"],
  ["NCCc1cnn(Cc2ccc3c(c2C(=O)O)OB(O)CC3)c1 [Compound 43]", "< 10 nM"],
  ["NCCc1ccc(-c2cn(Cc3ccc4c(c3C(=O)O)OB(O)CC4)nn2)cc1 [63-tartaric acid]", "< 10 nM"],
  ["CCCc1cn(Cc2ccc3c(c2C(=O)O)OB(O)CC3)nn1 [Compound 4]", "< 10 nM"],
  ["O=C(O)c1c(Cn2ncc3ccccc32)ccc2c1OB(O)CC2 [Compound 22]", "< 10 nM"],
  ["NCCN1Cc2cn(Cc3ccc4c(c3C(=O)O)OB(O)CC4)nc2C1 [Compound 70]", "< 10 nM"],
  ["NCCCc1cn(Cc2ccc3c(c2C(=O)O)OB(O)CC3)nn1 [Compound 9]", "< 10 nM"],
  ["O=C(O)c1c(Cn2cc(-c3ccccc3)nn2)ccc2c1OB(O)CC2 [Compound 12]", "< 10 nM"],
  ["O=C(O)c1c(Cn2cc3c(n2)CNC3)ccc2c1OB(O)[C@H]1C[C@@H]21 [Compound 54]", "10 to 1000 nM"],
  ["O=C(O)c1c(Cn2ccnn2)ccc2c1OB(O)CC2 [Compound 2]", "< 10 nM"],
  ["NS(=O)(=O)c1ccc(-c2cn(Cc3ccc4c(c3C(=O)O)OB(O)CC4)nn2)cc1 [Compound 62]", "< 10 nM"],
  ["N[C@H]1CC(=O)N(Cc2ccc3c(c2C(=O)O)OB(O)CC3)C1 [Compound 45]", "10 to 1000 nM"],
  ["NCc1cnn(Cc2ccc3c(c2C(=O)O)OB(O)[C@@H](Sc2nncs2)C3)c1 [Compound 68]", "1000 to 100000 nM"],
  ["NS(=O)(=O)N1Cc2cn(Cc3ccc4c(c3C(=O)O)OB(O)CC4)nc2C1 [Compound 57]", "< 10 nM"],
  ["Cc1nccn1Cc1ccc2c(c1C(=O)O)OB(O)CC2 [Compound 24]", "< 10 nM"],
  ["NCc1cnn(Cc2ccc3c(c2C(=O)O)OB(O)CC3)c1 [Compound 21]", "< 10 nM"],
  ["NC(=O)c1ccn(Cc2ccc3c(c2C(=O)O)OB(O)CC3)n1 [Compound 20]", "< 10 nM"],
  ["O=C(O)c1c(Cn2cncn2)ccc2c1OB(O)CC2 [Compound 13]", "< 10 nM"]
]}

====

# Tested on: TEM-1 (Escherichia coli, UniProt P62593)
# Sequence (P62593 24-286 limits assumed): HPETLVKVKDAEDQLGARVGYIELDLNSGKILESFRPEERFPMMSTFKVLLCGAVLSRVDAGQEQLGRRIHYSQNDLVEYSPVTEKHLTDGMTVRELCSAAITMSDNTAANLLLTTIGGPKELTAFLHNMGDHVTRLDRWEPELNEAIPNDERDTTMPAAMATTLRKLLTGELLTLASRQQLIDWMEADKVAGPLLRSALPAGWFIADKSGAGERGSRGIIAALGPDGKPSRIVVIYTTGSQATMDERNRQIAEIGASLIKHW
# Experiment: Inhibitory activity on SBL, fluorescent substrate FC-5
# Format: biochemical
# Settings: comparison in words
Value type: inhibitory activity on TEM-1 compared to avibactam

{"columns": ["Compound", "Result"],
 "data": [
  ["Nc1ncc(-c2cn(Cc3ccc4c(c3C(=O)O)OB(O)CC4)nn2)cn1 [Compound 61]", "better or comparable"],
  ["NC(=O)N1Cc2cn(Cc3ccc4c(c3C(=O)O)OB(O)CC4)nc2C1 [Compound 73]", "better or comparable"],
  ["CN1Cc2cn(Cc3ccc4c(c3C(=O)O)OB(O)CC4)nc2C1 [Compound 74]", "better or comparable"]
]}

====

# Tested on: OXA-48 (Klebsiella pneumoniae)
# Sequence (Q6XEC0 23-265 limits assumed): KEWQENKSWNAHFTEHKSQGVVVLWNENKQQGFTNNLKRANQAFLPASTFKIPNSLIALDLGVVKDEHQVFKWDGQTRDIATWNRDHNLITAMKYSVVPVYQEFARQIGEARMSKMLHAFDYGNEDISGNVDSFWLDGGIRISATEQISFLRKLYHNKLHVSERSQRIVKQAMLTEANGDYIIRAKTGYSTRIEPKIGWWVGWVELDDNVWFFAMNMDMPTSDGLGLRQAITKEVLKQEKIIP
# Experiment: Inhibitory activity on SBL, fluorescent substrate FC-5
# Format: biochemical
# Settings: Inhibitory activity on SBL OXA-48 (IC50 class)
compounds and their reported IC50

{"columns": ["Compound", "IC50"],
 "data": [
  ["C[C@]1(Cn2ccnn2)[C@H](C(=O)O)N2C(=O)C[C@H]2S1(=O)=O [Tazobactam, reference compound]", "1000 to 100000 nM"],
  ["O=C(O)c1c(Cn2nccn2)ccc2c1OB(O)C1CC21 (centres unmarked)", "< 10 nM"]
]}

====

Here the recorded IC50 is given for each entry.
# Tested on: TEM-1 (Escherichia coli, UniProt P62593)
# Experiment: Inhibitory activity on SBL, fluorescent substrate FC-5
# Format: biochemical
# Settings: read-out: Inhibitory activity on SBL TEM-1 (IC50 class)
Value type: IC50

{"columns": ["Structure notation", "Tested on", "Result"],
 "data": [
  ["NC1(c2cnn(Cc3ccc4c(c3C(=O)O)OB(O)CC4)c2)CC1", "TEM-1 (Escherichia coli, UniProt P62593)", "< 10 nM"],
  ["N#CCCCc1cn(Cc2ccc3c(c2C(=O)O)OB(O)CC3)nn1", "TEM-1 (Escherichia coli, UniProt P62593)", "10 to 1000 nM"],
  ["N=C(N)Nc1cnn(Cc2ccc3c(c2C(=O)O)OB(O)CC3)c1", "TEM-1 (Escherichia coli, UniProt P62593)", "10 to 1000 nM"],
  ["N=C(N)N1Cc2cn(Cc3ccc4c(c3C(=O)O)OB(O)CC4)nc2C1", "TEM-1 (Escherichia coli, UniProt P62593)", "< 10 nM"],
  ["O=C(O)c1c(Cn2ccnc2)ccc2c1OB(O)CC2", "TEM-1 (Escherichia coli, UniProt P62593)", "10 to 1000 nM"],
  ["O=C(O)c1c(CN2CC=CC2)ccc2c1OB(O)CC2", "TEM-1 (Escherichia coli, UniProt P62593)", "10 to 1000 nM"]
]}
